src = paper PMC5540273

List of %Inh values.
system: RIOK3; details: concentration: 1 μM,replicates: in singlicate; n = 1;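 further: KINOMEscan kinase panel screen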
Readout: %Inh (%)

• CCn1c(-c2nonc2N)nc2cncc(Br)c21 = 17
• OCCn1cc(-c2cnc3nnn(Cc4ccc5ncccc5c4)c3n2)cn1 = 19
• CS(=O)(=O)c1cccc(CNc2nc(Nc3ccc4c(c3)[C@@H]3C[C@@H]4CNC3=O)ncc2C(F)(F)F)c1 = 67
• Cn1ccc2ncnc(Oc3ccc(NC(=O)Nc4cncc(C(F)(F)F)c4)c(Cl)c3)c21 = 19
• Cn1ccc2ncnc(Oc3ccc(NC(=O)Nc4cnn(C(C)(C)C)c4)c(Cl)c3)c21 = 0
